Could you please report measured melting point for the items listed next?

Challenge: Fill blank: measured melting point of the molecule Cn1nc(C(=O)N2CCC(c3ccccc3C(F)(F)F)CC2)c2c1CC(C)(C)OC2 is ____.
Response given: 58 to 64 °C

Challenge: Then this molecule: O=C(c1n[nH]c2c1CNCC2)N1CCC(c2ccccc2C(F)(F)F)CC1
Response given: 270 to 272 °C

Challenge: Then this molecule: CC(C)S(=O)(=O)N1CCc2[nH]nc(C(=O)N3CCC(c4ccccc4C(F)(F)F)CC3)c2C1
Response given: 199 to 201 °C

Challenge: Then this molecule: CCC(=O)N1CCc2c(C(=O)N3CCC(c4ccccc4C(F)(F)F)CC3)n[nH]c2C1
Response given: 162 to 164 °C

---

Could you please report measured melting point for the items listed next?
Where a name gives a salt, the structure may show the parent alone.

Challenge: Fill blank: measured melting point of the compound O=C(c1cc2ncc(N3CCOCC3)cc2[nH]1)N1CCC(c2ccccc2C(F)(F)F)CC1 is ____.
Response given: 268 to 272 °C (dec.)

Challenge: Then this compound: NS(=O)(=O)Oc1ccccc1CC(=O)N1CCC(c2ccccc2C(F)(F)F)CC1
Response given: 170 to 173 °C

Challenge: Then this compound: CCC(=O)N1CCc2[nH]nc(C(=O)N3CCC(c4ccccc4C(F)(F)F)CC3)c2C1
Response given: 153 to 155 °C

Challenge: Then this compound: O=C(c1cnn[nH]1)N1CCC(c2ccccc2C(F)(F)F)CC1
Response given: 235 to 239 °C (dec.)

Challenge: Then this compound: CC(=O)N1Cc2[nH]nc(C(=O)N3CCC(c4ccccc4C(F)(F)F)CC3)c2C1
Response given: 186 to 192 °C

Challenge: Then this compound: N#Cc1ccc2[nH]nc(C(=O)N3CCC(c4ccccc4C(F)(F)F)CC3)c2c1
Response given: 249 to 252 °C

Challenge: Then this compound: CCN1CCc2[nH]nc(C(=O)N3CCC(c4ccccc4C(F)(F)F)CC3)c2C1
Response given: 159 to 162 °C

Challenge: Then this compound: CCS(=O)(=O)N1CCc2[nH]nc(C(=O)N3CCC(c4ccccc4C(F)(F)F)CC3)c2C1
Response given: 187 to 189 °C

Challenge: Then this compound: O=C(CC(F)(F)F)N1CCc2[nH]nc(C(=O)N3CCC(c4ccccc4C(F)(F)F)CC3)c2C1
Response given: 127 to 130 °C

Challenge: Then this compound: O=C(c1cc2ncc(Cl)cc2[nH]1)N1CCC(c2ccccc2C(F)(F)F)CC1
Response given: 258 to 261 °C

Challenge: Then this compound: NC(=O)c1ccc(C(=O)N2CCC(c3ccccc3C(F)(F)F)CC2)cc1
Response given: 188 to 190 °C

Challenge: Then this compound: Cc1nc2ccc(Cl)nn2c1C(=O)N1CCC(c2ccccc2C(F)(F)F)CC1
Response given: 147 to 150 °C

Challenge: Then this compound: CS(=O)(=O)N1CCc2[nH]nc(C(=O)N3CCC(c4ccccc4C(F)(F)F)CC3)c2C1
Response given: 240 to 243 °C

Challenge: Then this compound: O=C(c1cccnn1)N1CCC(c2ccccc2C(F)(F)F)CC1
Response given: 125 to 127 °C

Challenge: Then this compound: O=C(c1ccn[nH]1)N1CCC(c2ccccc2C(F)(F)F)CC1
Response given: 167 to 170 °C

Challenge: Then this compound: CC(C)C(=O)N1CCc2[nH]nc(C(=O)N3CCC(c4ccccc4C(F)(F)F)CC3)c2C1
Response given: 112 to 114 °C

Challenge: Then this compound: CC(=O)N1CCc2c(C(=O)N3CCC(c4ccccc4C(F)(F)F)CC3)n[nH]c2C1
Response given: 202 to 209 °C

Challenge: Then this compound: CC(C)CS(=O)(=O)N1CCc2[nH]nc(C(=O)N3CCC(c4ccccc4C(F)(F)F)CC3)c2C1
Response given: 178 to 180 °C

Challenge: Then this compound: Cc1ccc(C(=O)N2CCC(c3ccccc3C(F)(F)F)CC2)nn1
Response given: 144 to 148 °C

Challenge: Then this compound: CC(C)(C)c1ccccc1C1CCN(C(=O)C2CCCS2(=O)=O)CC1 (stereo not shown)
Response given: 80 to 84 °C

Challenge: Then this compound: Cn1c(C(=O)N2CCC(c3ccccc3C(F)(F)F)CC2)cc2ncccc21
Response given: 159 to 163 °C

Challenge: Then this compound: CC(C)C(=O)N1CCc2c(C(=O)N3CCC(c4ccccc4C(F)(F)F)CC3)n[nH]c2C1
Response given: 200 to 203 °C

Challenge: Then this compound: O=C(c1ccc(Cl)nn1)N1CCC(c2ccccc2C(F)(F)F)CC1
Response given: 170 to 172 °C

Challenge: Then this compound: O=C(c1nc2ncccc2[nH]1)N1CCC(c2ccccc2C(F)(F)F)CC1
Response given: 249 to 251 °C

Challenge: Then this compound: CCC(=O)N1Cc2[nH]nc(C(=O)N3CCC(c4ccccc4C(F)(F)F)CC3)c2C1
Response given: 216 to 219 °C

Challenge: Then this compound: O=C(c1n[nH]c2cc(F)c(F)cc12)N1CCC(c2ccccc2C(F)(F)F)CC1
Response given: 233 to 235 °C

Challenge: Then this compound: O=C(c1n[nH]c2c1CCNC2)N1CCC(c2ccccc2C(F)(F)F)CC1 (as salt: hydrochloride)
Response given: 272 to 278 °C

Challenge: Then this compound: O=C(c1n[nH]c2c1CN(C1COC1)CC2)N1CCC(c2ccccc2C(F)(F)F)CC1
Response given: 107 to 110 °C

Challenge: Then this compound: O=C(c1ccc2nccn2n1)N1CCC(c2ccccc2C(F)(F)F)CC1
Response given: 152 to 155 °C

Challenge: Then this compound: CC(C)(C)C(=O)N1Cc2[nH]nc(C(=O)N3CCC(c4ccccc4C(F)(F)F)CC3)c2C1
Response given: 229 to 232 °C

Challenge: Then this compound: CC(C)CC(=O)N1Cc2[nH]nc(C(=O)N3CCC(c4ccccc4C(F)(F)F)CC3)c2C1
Response given: 200 to 203 °C

Challenge: Then this compound: CC(=O)N1CCc2[nH]nc(C(=O)N3CCC(c4ccccc4C(F)(F)F)CC3)c2C1
Response given: 208 to 211 °C

Challenge: Then this compound: CC(C)(C)C(=O)N1CCc2[nH]nc(C(=O)N3CCC(c4ccccc4C(F)(F)F)CC3)c2C1
Response given: 126 to 128 °C

Challenge: Then this compound: NC(=O)c1cccc(C(=O)N2CCC(c3ccccc3C(F)(F)F)CC2)c1
Response given: 192 to 194 °C

---

Could you please report measured melting point for the items listed next?

Challenge: Fill blank: measured melting point of the compound CC(C)S(=O)(=O)N1CCc2c(C(=O)N3CCC(c4ccccc4C(F)(F)F)CC3)n[nH]c2C1 [Example 51] is ____.
Response given: 220 to 222 °C

Challenge: Then this compound: CC1(C(=O)N2CCC(c3ccccc3C(F)(F)F)CC2)COC1 [Example 103]
Response given: 100 to 102 °C

Challenge: Then this compound: CC(=O)N1CCCC1C(=O)N1CCC(c2ccccc2C(C)(C)C)CC1 (stereo not shown) [Example 97]
Response given: 50 to 60 °C

Challenge: Then this compound: Cn1nc(C(=O)N2CCC(c3ccccc3C(F)(F)F)CC2)c2c1CCS(=O)(=O)C2 [Example 3]
Response given: 232 to 234 °C

---

PROPERTY: melting point

Challenge: Fill blank: measured melting point of the molecule COCC(=O)N1CCc2[nH]nc(C(=O)N3CCC(c4ccccc4C(F)(F)F)CC3)c2C1 [Example 48] is ____.
Response given: 192 to 194 °C

Challenge: Then this molecule: Cc1nnsc1C(=O)N1CCC(c2ccccc2C(F)(F)F)CC1 [Example 84]
Response given: 141 to 143 °C

Challenge: Then this molecule: O=C(c1cc2ncc(-n3ccnc3)cc2[nH]1)N1CCC(c2ccccc2C(F)(F)F)CC1 [Example 75]
Response given: > 270 °C

Challenge: Then this molecule: COc1ccc(C(=O)N2CCC(c3ccccc3C(F)(F)F)CC2)nn1 [Example 86]
Response given: 122 to 125 °C

Challenge: Then this molecule: Cc1cnc2cc(C(=O)N3CCC(c4ccccc4C(F)(F)F)CC3)[nH]c2c1 [Example 70]
Response given: 254 to 258 °C

Challenge: Then this molecule: CC(C)CC(=O)N1CCc2[nH]nc(C(=O)N3CCC(c4ccccc4C(F)(F)F)CC3)c2C1 [Example 42]
Response given: 107 to 109 °C

Challenge: Then this molecule: CC(C)(C)c1ccccc1C1CCN(C(=O)[C@H]2C[C@@H](O)CN2)CC1 [Example 98]
Response given: 65 to 75 °C

Challenge: Then this molecule: CN1CCc2c(C(=O)N3CCC(c4ccccc4C(F)(F)F)CC3)n[nH]c2C1 [Example 19]
Response given: 115 to 120 °C
